Reference for the values: ChEMBL document CHEMBL5726363

system: Cytochrome P450 11B2, mitochondrial (Homo sapiens)
Sequence (P19099 whole entry): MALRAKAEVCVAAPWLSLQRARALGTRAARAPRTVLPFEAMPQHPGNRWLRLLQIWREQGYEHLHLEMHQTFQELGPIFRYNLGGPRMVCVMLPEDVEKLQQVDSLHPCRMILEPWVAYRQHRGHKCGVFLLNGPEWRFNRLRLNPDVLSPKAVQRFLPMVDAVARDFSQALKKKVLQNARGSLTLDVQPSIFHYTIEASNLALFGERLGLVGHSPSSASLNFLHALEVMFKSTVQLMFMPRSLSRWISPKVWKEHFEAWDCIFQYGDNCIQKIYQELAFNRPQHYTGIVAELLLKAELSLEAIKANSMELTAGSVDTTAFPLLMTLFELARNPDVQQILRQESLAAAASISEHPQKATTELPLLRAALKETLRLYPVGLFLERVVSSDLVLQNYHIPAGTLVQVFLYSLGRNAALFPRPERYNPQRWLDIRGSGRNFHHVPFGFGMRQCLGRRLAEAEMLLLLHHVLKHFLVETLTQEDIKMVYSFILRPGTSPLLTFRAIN
protocol: HTRF-Based Assay : V79 cell lines stably expressing the either the human CYP11B2 or the human CYP11B1 enzyme were generated using a standard transfection protocol. V79 cells were transfected with plasmids pTriEx3-Hygro-hCyp11B2 or pTriEx3-Hygro-hCyp11B1 using Lipofectamine2000 reagent. V79 cells that stably express the human CYP11B2 or human CYP11B1 enzyme were selected for and maintained in DMEM supplemented with 10% FBS and 400 μg/mL hygromycin for 2 weeks. Single cell clones were generated by infinite dilution in DMEM supplemented with 10% FBS and 400 μg/mL hygromycin until single colonies were obtained. Clones V79-hCYP11B2-CLE9 and V79-hCYP11B1-CL8C7, were determined to produce the most aldosterone and cortisol, respectively, and were selected for inhibitor screening. For testing of inhibitors, cells were harvested at 80% confluency with 0.05% Trypsan-EDTA, washed once in PBS, and reconstituted in DMEM+0.1% BSA media at a cell concentration of 600,000 cells/mL for the CYP11B2 assay and 280,000 cells/mL for the CYP11B1 assay. 25 μL of cells were added to a 384 well tissue culture treated plate and mixed with 0.3 μL of inhibitor or DMSO (1% final DMSO concentration) for 1 hour at 37° C., 5% CO2. After pre-incubation with inhibitor, the reaction was initiated by adding 5 μL of substrate (final concentration of 125 nM 11-deoxycorticosterone for the CYP11B2 assay or 250 nM 11-deoxycortisol for the CYP11B1 assay). The reaction was carried out for 3 hours at 37° C., 5% CO2 and was stopped by harvesting the supernatants. The amount of product in the supernatant (aldosterone for CYP11B2 assay and cortisol for the CYP11B1 assay) was measured using HTRF-based assay kit (Aldosterone HTRF-CisBio#64ALDPEB, Cortisol HTRF-CisBio #63IDC002-CORT).
quantity kind: IC50 (nM)
Answers are plain numbers, in nM.

# annotated cases, reported IC50 shown
• CC(C)C(=O)N1CCc2cc(-c3cncc4ccccc34)ccc21 = 30
• O=C(N1CCc2cc(-c3cncc(F)c3)cc(F)c21)C(F)(F)F = 17.4
• O=C(N1CCc2cc(-c3cncc(F)c3)cc(Cl)c21)C(F)(F)F = 10.6
• CC(=O)N1CCc2cc(-c3cncc(F)c3C)cc(Cl)c21 = 1.4

Ask: Identify measured IC50 associated with `CC(=O)N1CCc2cc(-c3cnccc3C)cc(F)c21`
Reply: 0.2
